Taken from PubChem BioAssay (NCI).

Experiment: NCI Yeast Anticancer Drug Screen. Data for the cln2 rad14 strain (AID 165);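 note: 0% = growth equal to vehicle treated cultures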
Details: S. cerevisiae cln2 rad14 strain, at 50.0 µM, hits give high values
Compounds without any hit were thinned out: in the full panel of roughly 79,000, 15% have a hit.
Consider the following molecules and their measured growth inhibition readings.
// return numeric value only (unit: %, not printed)

{"columns": ["MOLECULE", "growth inhibition (%)"],
 "data": [
  ["Clc1ccc(N[P+](c2ccccc2)(c2ccccc2)c2ccccc2)cc1.[Cl][Fe]([Cl])([Cl])[Cl]", 5],
  ["NNC(=O)/C(NC(=O)c1ccccc1)=C(\\N)c1cccc([N+](=O)[O-])c1", 3.25],
  ["CCOC(=O)CC1(O)C(=O)N(Cc2ccccc2)c2ccccc21 (stereo unspecified)", 0.4],
  ["OC(COc1ccccc1)COc1ccccc1", -18.7],
  ["CCOC(=O)CNC(=O)CNC(=O)CNC(=O)CN", -20.4]
]}

Briefly, growth inhibition measured for CC(=O)NC1c2ccccc2CCC1OC(C)=O (stereo unspecified) : -1.8

Briefly, growth inhibition measured for N#CCCN(CCC#N)c1ccc(CC2C(=O)N(c3cccc(S(=O)(=O)O)c3)N=C2C(=O)O)cc1 (stereo unspecified) : 6.65

Briefly, growth inhibition measured for COc1ccc(-c2oc3cc(OC)c(OC)c(O)c3c(=O)c2OC)cc1 : 9.05

Briefly, growth inhibition measured for COc1ccc2[nH]cc(C(=O)C(=O)NC34CC5CC(CC(C5)C3)C4)c2c1 : -1.7

Briefly, growth inhibition measured for Nc1cccc(C(O)c2ccccc2)c1 (stereo unspecified) : 6.25

Briefly, growth inhibition measured for O=C1NC(Cc2ccccc2)C(=O)N2CCCC12 (stereo unspecified) : -18.1

Briefly, growth inhibition measured for COc1cccc2c1c1ccc3c(c1n2C)C(=O)C=CC3=O : 11.2

Briefly, growth inhibition measured for COc1ccc(/C(Br)=C2\OC(=O)c3ccccc32)cc1 : -35.1

Briefly, growth inhibition measured for COc1cccc(C(C#N)c2cnc3ccccc3n2)c1 (stereo unspecified) : 33.2

Briefly, growth inhibition measured for O=c1[nH]c(=S)[nH]c2c1CCC2 : 21.4
